- Tested on: Danio rerio embryo (fli1:egfp)
- assay protocol: pericardial area at 72 hpf (image area units (not stated)); higher = larger pericardial area (edema)
- run conditions: 0.78 µM; exposure: 5-72 hpf
outcome measure: pericardial area at 72 hpf

In [3]: df
Out[3]:
                                    molecule             outcome_measure  reported_measurement
 0  C[C@@]1(c2ccc(Oc3ccccc3)cc2)OC(=O)N(Nc2ccccc2)C1=O (racemic)  pericardial area at 72 hpf                 15500
 1  CCOC(=O)COc1cc(-c2nn(C)c(OC(F)F)c2Cl)c(F)cc1Cl  pericardial area at 72 hpf                 16800
 2                    CCCCSP(=O)(SCCCC)SCCCC  pericardial area at 72 hpf                 14600
 3  CCOC(=O)COc1cc(-n2ncc(C(F)(F)F)c(C)c2=O)c(F)cc1Cl  pericardial area at 72 hpf                 13300
 4  CCCCCOC(=O)COc1cc(N2C(=O)C3=C(CCCC3)C2=O)c(F)cc1Cl  pericardial area at 72 hpf                 15200
 5  C#CCOC(=O)[C@@H](C)Oc1ccc(Oc2ncc(Cl)cc2F)cc1  pericardial area at 72 hpf                 15400
 6  CC(C)Oc1cc(-n2nc(C(C)(C)C)oc2=O)c(Cl)cc1Cl  pericardial area at 72 hpf                 16500
 7  CCOC(=O)C(Cl)Cc1cc(-n2nc(C)n(C(F)F)c2=O)c(F)cc1Cl (configuration not stated)  pericardial area at 72 hpf                 17700
 8  O=C(O)c1cc(Oc2ccc(C(F)(F)F)cc2Cl)ccc1[N+](=O)[O-]  pericardial area at 72 hpf                 15600
 9  CC1(C)C(C=C(Cl)Cl)C1C(=O)OC(C#N)c1ccc(F)c(Oc2ccccc2)c1 (configuration not stated)  pericardial area at 72 hpf                 14900
10  Cc1nn(-c2cc(NS(C)(=O)=O)c(Cl)cc2Cl)c(=O)n1C(F)F  pericardial area at 72 hpf                 16100
11  CCc1nn(C)c(C(=O)NCc2ccc(C(C)(C)C)cc2)c1Cl  pericardial area at 72 hpf                 16300
12  CCOc1cc(Oc2ccc(C(F)(F)F)cc2Cl)ccc1[N+](=O)[O-]  pericardial area at 72 hpf                 13400
13  CCOC(=O)C(C)OC(=O)c1cc(Oc2ccc(C(F)(F)F)cc2Cl)ccc1[N+](=O)[O-] (configuration not stated)  pericardial area at 72 hpf                 19300
14  CC(C)[C@H](C(=O)O[C@H](C#N)c1cccc(Oc2ccccc2)c1)c1ccc(Cl)cc1 [Esfenvalerate]  pericardial area at 72 hpf                 15800
15  COC(=O)N(C(=O)N1CO[C@@]2(C(=O)OC)Cc3cc(Cl)ccc3C2=N1)c1ccc(OC(F)(F)F)cc1  pericardial area at 72 hpf                 14100
16  C=CCOC(=O)C(C)(C)OC(=O)c1cc(-n2c(=O)cc(C(F)(F)F)n(C)c2=O)ccc1Cl  pericardial area at 72 hpf                 18900
